The reader will find reported Ki values listed item by item below.
# testedTarget: Neprilysin (Homo sapiens)
# Sequence (P08473 whole entry): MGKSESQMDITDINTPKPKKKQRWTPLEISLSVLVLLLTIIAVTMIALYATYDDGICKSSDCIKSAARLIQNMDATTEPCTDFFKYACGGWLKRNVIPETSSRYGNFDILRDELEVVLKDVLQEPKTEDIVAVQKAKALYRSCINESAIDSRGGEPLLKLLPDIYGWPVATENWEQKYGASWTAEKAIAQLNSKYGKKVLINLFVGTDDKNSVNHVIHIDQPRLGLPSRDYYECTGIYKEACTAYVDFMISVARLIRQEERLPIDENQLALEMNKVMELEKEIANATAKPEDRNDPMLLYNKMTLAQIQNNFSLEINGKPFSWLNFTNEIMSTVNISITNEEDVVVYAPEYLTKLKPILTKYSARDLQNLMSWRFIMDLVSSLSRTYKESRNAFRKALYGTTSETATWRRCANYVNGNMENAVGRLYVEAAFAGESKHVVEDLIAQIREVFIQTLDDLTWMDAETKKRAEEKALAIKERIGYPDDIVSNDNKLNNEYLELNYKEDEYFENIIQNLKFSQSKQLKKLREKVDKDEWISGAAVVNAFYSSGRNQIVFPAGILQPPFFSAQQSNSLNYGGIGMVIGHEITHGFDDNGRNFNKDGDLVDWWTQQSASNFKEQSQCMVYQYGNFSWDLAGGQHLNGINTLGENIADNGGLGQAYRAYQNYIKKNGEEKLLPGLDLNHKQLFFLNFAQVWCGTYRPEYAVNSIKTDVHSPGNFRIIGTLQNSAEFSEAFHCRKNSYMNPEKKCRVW
# assayComment: Inhibition of human recombinant NEP by fluorescence assay
# particulars: read-out: Ki app
Numbers only; they are read as nM.

## Input I have this compound here, "O=C(O)[C@H](Cc1ccc(-c2ccccc2)cc1)NC(=O)[C@@H](S)Cc1ccc2ccccc2c1" , and I need its recorded Ki.
## Output 140

New cases:
## Input I have this compound here, "CC(C)[C@H](S)C(=O)N[C@@H](Cc1ccc(-c2ccccc2)cc1)C(=O)O" , and I need its recorded Ki.
## Output 13

## Input I have this compound here, "CC[C@@H](C)[C@H](S)C(=O)N[C@@H](Cc1ccc(-c2ccccc2)cc1)C(=O)O" , and I need its recorded Ki.
## Output 27

## Input I have this compound here, "O=C(O)[C@H](Cc1ccc(-c2ccccc2)cc1)NC(=O)[C@@H](S)C1CCCCC1" , and I need its recorded Ki.
## Output 1300

## Input I have this compound here, "CC(C)C[C@H](S)C(=O)N[C@@H](Cc1ccc(-c2ccccc2)cc1)C(=O)O" , and I need its recorded Ki.
## Output 0.28

====

# testedTarget: UniProtKB P15085
# Sequence (P15085 whole entry): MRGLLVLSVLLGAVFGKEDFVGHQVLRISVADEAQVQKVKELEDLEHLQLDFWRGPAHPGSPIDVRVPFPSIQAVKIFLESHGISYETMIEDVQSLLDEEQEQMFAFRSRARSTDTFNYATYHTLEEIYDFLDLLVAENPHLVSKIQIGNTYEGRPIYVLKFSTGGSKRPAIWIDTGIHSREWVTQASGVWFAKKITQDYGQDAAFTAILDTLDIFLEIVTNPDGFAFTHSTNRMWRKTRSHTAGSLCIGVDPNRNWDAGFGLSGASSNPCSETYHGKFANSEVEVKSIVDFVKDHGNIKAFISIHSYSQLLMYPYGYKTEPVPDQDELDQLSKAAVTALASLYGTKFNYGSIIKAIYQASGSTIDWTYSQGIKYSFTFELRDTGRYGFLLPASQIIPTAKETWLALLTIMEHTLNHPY
# assayComment: Inhibition of human recombinant carboxy peptidase A1 by fluorescence assay
# particulars: read-out: Ki app
The reader will find reported Ki values listed item by item below.
Numbers only; they are read as µM.

Some molecules with recorded Ki:
## Input I have this molecule here, "O=C(O)[C@H](Cc1ccc(-c2ccccc2)cc1)NC(=O)[C@@H](S)CC1CCCCC1" , and I need its recorded Ki.
## Output 17

## Input I have this molecule here, "CC[C@@H](C)[C@H](S)C(=O)N[C@@H](Cc1ccc(-c2ccccc2)cc1)C(=O)O" , and I need its recorded Ki.
## Output 11

## Input I have this molecule here, "O=C(CS)N[C@@H](Cc1ccc(-c2ccccc2)cc1)C(=O)O" , and I need its recorded Ki.
## Output 1.7

## Input I have this molecule here, "O=C(N[C@@H](Cc1ccc(-c2ccccc2)cc1)C(=O)O)[C@H](S)Cc1ccccc1" , and I need its recorded Ki.
## Output 0.31

## Input I have this molecule here, "CC(C)[C@H](S)C(=O)N[C@@H](Cc1ccc(-c2ccccc2)cc1)C(=O)O" , and I need its recorded Ki.
## Output 17

## Input I have this molecule here, "O=C(O)[C@H](Cc1ccc(-c2ccccc2)cc1)NC(=O)[C@@H](S)CCc1ccccc1" , and I need its recorded Ki.
## Output 5

## Input I have this molecule here, "CC[C@H](S)C(=O)N[C@@H](Cc1ccc(-c2ccccc2)cc1)C(=O)O" , and I need its recorded Ki.
## Output 9.3

## Input I have this molecule here, "CC[C@H](C)[C@H](S)C(=O)N[C@@H](Cc1ccc(-c2ccccc2)cc1)C(=O)O" , and I need its recorded Ki.
## Output 15

## Input I have this molecule here, "O=C(O)[C@H](Cc1ccc(-c2ccccc2)cc1)NC(=O)[C@@H](S)Cc1ccc2ccccc2c1" , and I need its recorded Ki.
## Output 32

## Input I have this molecule here, "CCCC[C@H](S)C(=O)N[C@@H](Cc1ccc(-c2ccccc2)cc1)C(=O)O" , and I need its recorded Ki.
## Output 8.9

New cases:
## Input I have this molecule here, "O=C(O)[C@H](Cc1ccc(-c2ccccc2)cc1)NC(=O)[C@@H](S)Cc1ccccc1" , and I need its recorded Ki.
## Output 1.2

## Input I have this molecule here, "CC(C)C[C@H](S)C(=O)N[C@@H](Cc1ccc(-c2ccccc2)cc1)C(=O)O" , and I need its recorded Ki.
## Output 11

## Input I have this molecule here, "O=C(O)[C@H](Cc1ccc(-c2ccccc2)cc1)NC(=O)[C@@H](S)C1CCCCC1" , and I need its recorded Ki.
## Output 12

## Input I have this molecule here, "O=C(O)[C@H](Cc1ccc(-c2ccccc2)cc1)NC(=O)[C@@H](S)C1CCC1" , and I need its recorded Ki.
## Output 12

## Input I have this molecule here, "O=C(O)[C@H](Cc1ccc(-c2ccccc2)cc1)NC(=O)[C@@H](S)C1CCCC1" , and I need its recorded Ki.
## Output 12

## Input I have this molecule here, "C[C@H](S)C(=O)N[C@@H](Cc1ccc(-c2ccccc2)cc1)C(=O)O" , and I need its recorded Ki.
## Output 14

## Input I have this molecule here, "CC(C)(C)C[C@H](S)C(=O)N[C@@H](Cc1ccc(-c2ccccc2)cc1)C(=O)O" , and I need its recorded Ki.
## Output 22

====

# testedTarget: Angiotensin-converting enzyme (Homo sapiens)
# Sequence (P12821 whole entry): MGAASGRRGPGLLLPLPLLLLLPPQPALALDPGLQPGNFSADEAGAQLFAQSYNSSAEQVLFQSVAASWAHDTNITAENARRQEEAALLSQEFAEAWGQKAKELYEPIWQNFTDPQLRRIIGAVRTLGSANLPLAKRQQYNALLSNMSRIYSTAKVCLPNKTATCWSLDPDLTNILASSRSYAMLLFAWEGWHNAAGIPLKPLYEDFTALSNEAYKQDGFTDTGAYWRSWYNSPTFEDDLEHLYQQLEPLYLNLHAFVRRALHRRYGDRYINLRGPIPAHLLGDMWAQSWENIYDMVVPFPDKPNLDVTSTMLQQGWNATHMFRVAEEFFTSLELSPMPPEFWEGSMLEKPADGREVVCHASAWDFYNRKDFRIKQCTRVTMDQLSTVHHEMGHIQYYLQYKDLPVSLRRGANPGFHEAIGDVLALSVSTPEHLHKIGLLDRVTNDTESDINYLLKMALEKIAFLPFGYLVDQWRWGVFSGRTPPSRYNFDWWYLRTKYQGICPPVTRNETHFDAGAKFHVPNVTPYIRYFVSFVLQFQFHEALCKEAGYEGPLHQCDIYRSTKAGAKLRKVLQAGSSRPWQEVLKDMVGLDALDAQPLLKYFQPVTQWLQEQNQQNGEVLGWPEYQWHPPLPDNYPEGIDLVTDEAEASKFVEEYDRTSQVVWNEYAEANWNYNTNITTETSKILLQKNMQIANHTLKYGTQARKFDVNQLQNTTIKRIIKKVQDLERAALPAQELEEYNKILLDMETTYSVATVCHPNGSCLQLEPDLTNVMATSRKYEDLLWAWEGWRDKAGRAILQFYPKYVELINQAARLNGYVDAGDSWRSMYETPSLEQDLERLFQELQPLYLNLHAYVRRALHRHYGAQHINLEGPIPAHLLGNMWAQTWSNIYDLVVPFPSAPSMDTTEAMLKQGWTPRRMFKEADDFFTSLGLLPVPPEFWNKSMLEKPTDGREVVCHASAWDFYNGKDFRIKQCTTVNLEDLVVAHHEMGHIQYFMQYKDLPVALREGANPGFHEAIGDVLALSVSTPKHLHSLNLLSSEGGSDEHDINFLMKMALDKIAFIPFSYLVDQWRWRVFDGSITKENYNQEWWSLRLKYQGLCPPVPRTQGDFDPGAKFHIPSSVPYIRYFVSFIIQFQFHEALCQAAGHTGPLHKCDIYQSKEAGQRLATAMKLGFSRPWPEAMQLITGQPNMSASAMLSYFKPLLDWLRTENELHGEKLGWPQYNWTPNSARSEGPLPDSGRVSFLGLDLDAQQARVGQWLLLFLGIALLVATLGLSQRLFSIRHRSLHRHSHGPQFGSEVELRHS
# assayComment: Inhibition of human recombinant ACE by fluorescence assay
# particulars: read-out: Ki app
observationType: pKi
Keep in mind that pKi stands for -log10 of concentration in molar terms.

Some compounds with recorded pKi:
## Input I have this compound here, "O=C(O)[C@H](Cc1ccc(-c2ccccc2)cc1)NC(=O)[C@@H](S)Cc1ccc2ccccc2c1" , and I need its recorded pKi.
## Output 6.68

## Input I have this compound here, "CC(C)[C@H](S)C(=O)N[C@@H](Cc1ccc(-c2ccccc2)cc1)C(=O)O" , and I need its recorded pKi.
## Output 6.70

## Input I have this compound here, "CCCC[C@H](S)C(=O)N[C@@H](Cc1ccc(-c2ccccc2)cc1)C(=O)O" , and I need its recorded pKi.
## Output 8.03

## Input I have this compound here, "O=C(O)[C@H](Cc1ccc(-c2ccccc2)cc1)NC(=O)[C@@H](S)C1CCCC1" , and I need its recorded pKi.
## Output 6.15

## Input I have this compound here, "O=C(O)[C@H](Cc1ccc(-c2ccccc2)cc1)NC(=O)[C@@H](S)CC1CCCCC1" , and I need its recorded pKi.
## Output 6.08

New cases:
## Input I have this compound here, "C[C@H](S)C(=O)N[C@@H](Cc1ccc(-c2ccccc2)cc1)C(=O)O" , and I need its recorded pKi.
## Output 7.68

## Input I have this compound here, "O=C(CS)N[C@@H](Cc1ccc(-c2ccccc2)cc1)C(=O)O" , and I need its recorded pKi.
## Output 7.80

## Input I have this compound here, "CC[C@@H](C)[C@H](S)C(=O)N[C@@H](Cc1ccc(-c2ccccc2)cc1)C(=O)O" , and I need its recorded pKi.
## Output 6.31

====

The reader will find reported pKi values listed item by item below.
# testedTarget: Angiotensin-converting enzyme 2 (Homo sapiens, UniProt Q9BYF1)
# Sequence (Q9BYF1 whole entry): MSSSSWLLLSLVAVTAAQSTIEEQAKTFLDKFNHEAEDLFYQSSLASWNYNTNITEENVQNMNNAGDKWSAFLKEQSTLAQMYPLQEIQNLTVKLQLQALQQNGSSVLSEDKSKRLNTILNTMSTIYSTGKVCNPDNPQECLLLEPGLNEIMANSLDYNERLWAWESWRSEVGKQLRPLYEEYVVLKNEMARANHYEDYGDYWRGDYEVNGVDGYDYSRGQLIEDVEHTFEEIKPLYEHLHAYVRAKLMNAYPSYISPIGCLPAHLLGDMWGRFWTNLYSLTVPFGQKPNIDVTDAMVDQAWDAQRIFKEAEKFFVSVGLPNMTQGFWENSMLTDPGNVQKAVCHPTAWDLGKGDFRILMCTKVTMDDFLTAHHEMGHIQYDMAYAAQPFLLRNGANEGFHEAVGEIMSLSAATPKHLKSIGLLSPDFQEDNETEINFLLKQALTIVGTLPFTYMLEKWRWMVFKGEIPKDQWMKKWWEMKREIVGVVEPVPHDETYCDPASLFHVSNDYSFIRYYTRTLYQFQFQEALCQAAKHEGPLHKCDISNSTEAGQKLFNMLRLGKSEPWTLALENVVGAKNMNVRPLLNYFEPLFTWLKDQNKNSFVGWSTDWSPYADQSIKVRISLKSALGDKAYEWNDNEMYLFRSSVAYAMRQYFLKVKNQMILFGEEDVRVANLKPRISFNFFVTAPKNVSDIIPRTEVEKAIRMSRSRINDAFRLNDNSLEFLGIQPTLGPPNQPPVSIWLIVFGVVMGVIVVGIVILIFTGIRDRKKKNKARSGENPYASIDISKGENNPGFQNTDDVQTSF
# assayComment: Inhibition of human recombinant ACE2 by fluorescence assay
# particulars: read-out: Ki app
Keep in mind that pKi stands for -log10 of concentration in molar terms.

Some compounds with recorded pKi:
## Input I have this compound here, "O=C(CS)N[C@@H](Cc1ccc(-c2ccccc2)cc1)C(=O)O" , and I need its recorded pKi.
## Output 6.49

## Input I have this compound here, "O=C(N[C@@H](Cc1ccc(-c2ccccc2)cc1)C(=O)O)[C@H](S)Cc1ccccc1" , and I need its recorded pKi.
## Output 5.85

## Input I have this compound here, "O=C(O)[C@H](Cc1ccc(-c2ccccc2)cc1)NC(=O)[C@@H](S)CCc1ccccc1" , and I need its recorded pKi.
## Output 6.07

## Input I have this compound here, "CC(C)(C)C[C@H](S)C(=O)N[C@@H](Cc1ccc(-c2ccccc2)cc1)C(=O)O" , and I need its recorded pKi.
## Output 8.15

Switching to the query record.
## Input I have this compound here, "O=C(O)[C@H](Cc1ccc(-c2ccccc2)cc1)NC(=O)[C@@H](S)C1CCCC1" , and I need its recorded pKi.
## Output 8.74

====

# testedTarget: Angiotensin-converting enzyme 2 (Homo sapiens, UniProt Q9BYF1)
# assayComment: Inhibition of human recombinant ACE2 by fluorescence assay
# particulars: read-out: Ki app
Rule: Ki below 60 nM gives label 1. Equal to or above 60 nM gives label 0.

Record excerpt, results attached:
## Input Say whether its Ki is strictly beneath 60 nM. Entry: "O=C(O)[C@H](Cc1ccc(-c2ccccc2)cc1)NC(=O)[C@@H](S)C1CCCCC1"
## Output label 0

## Input Say whether its Ki is strictly beneath 60 nM. Entry: "CCCC[C@H](S)C(=O)N[C@@H](Cc1ccc(-c2ccccc2)cc1)C(=O)O"
## Output label 1

## Input Say whether its Ki is strictly beneath 60 nM. Entry: "CC[C@H](C)[C@H](S)C(=O)N[C@@H](Cc1ccc(-c2ccccc2)cc1)C(=O)O"
## Output label 1

## Input Say whether its Ki is strictly beneath 60 nM. Entry: "O=C(O)[C@H](Cc1ccc(-c2ccccc2)cc1)NC(=O)[C@@H](S)Cc1ccc2ccccc2c1"
## Output label 0

New cases:
## Input Say whether its Ki is strictly beneath 60 nM. Entry: "O=C(O)[C@H](Cc1ccc(-c2ccccc2)cc1)NC(=O)[C@@H](S)Cc1ccccc1"
## Output label 0

====

# testedTarget: Angiotensin-converting enzyme 2 (Homo sapiens, UniProt Q9BYF1)
# assayComment: Inhibition of human recombinant ACE2 by fluorescence assay
# particulars: read-out: Ki app
The reader will find reported pKi values listed item by item below.
Keep in mind that pKi stands for -log10 of concentration in molar terms.

Some compounds with recorded pKi:
## Input I have this compound here, "CC(C)(S)C(=O)N[C@@H](Cc1ccc(-c2ccccc2)cc1)C(=O)O" , and I need its recorded pKi.
## Output 5.64

## Input I have this compound here, "CC(C)C[C@H](S)C(=O)N[C@@H](Cc1ccc(-c2ccccc2)cc1)C(=O)O" , and I need its recorded pKi.
## Output 8.85

## Input I have this compound here, "O=C(O)[C@H](Cc1ccc(-c2ccccc2)cc1)NC(=O)[C@@H](S)C1CCC1" , and I need its recorded pKi.
## Output 8.62

## Input I have this compound here, "CC[C@@H](C)[C@H](S)C(=O)N[C@@H](Cc1ccc(-c2ccccc2)cc1)C(=O)O" , and I need its recorded pKi.
## Output 8.82

## Input I have this compound here, "CC[C@H](S)C(=O)N[C@@H](Cc1ccc(-c2ccccc2)cc1)C(=O)O" , and I need its recorded pKi.
## Output 8.85

## Input I have this compound here, "C[C@H](S)C(=O)N[C@@H](Cc1ccc(-c2ccccc2)cc1)C(=O)O" , and I need its recorded pKi.
## Output 8.16

## Input I have this compound here, "CC(C)[C@H](S)C(=O)N[C@@H](Cc1ccc(-c2ccccc2)cc1)C(=O)O" , and I need its recorded pKi.
## Output 8.82

## Input I have this compound here, "O=C(O)[C@H](Cc1ccc(-c2ccccc2)cc1)NC(=O)[C@@H](S)c1ccccc1" , and I need its recorded pKi.
## Output 7.08

New cases:
## Input I have this compound here, "O=C(O)[C@H](Cc1ccc(-c2ccccc2)cc1)NC(=O)[C@@H](S)CC1CCCCC1" , and I need its recorded pKi.
## Output 6.38
